Examples of binders with documented pKd follow.
- TARGET_OR_TEST_SYSTEM: T1, human ActRIIA (human, UniProt P27037 20-135, limits assumed)
- T1 construct: antigen in MSD-SET; also called ACVR2A; ActR2A
- T1 sequence (P27037 20-135 limits assumed): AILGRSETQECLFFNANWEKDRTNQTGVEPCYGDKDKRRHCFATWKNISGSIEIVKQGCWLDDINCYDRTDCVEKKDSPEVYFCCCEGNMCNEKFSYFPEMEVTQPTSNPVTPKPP
- TEST_SUMMARY: MSD-SET
Please treat pKd as minus the base-10 logarithm of the molar concentration.

Consider the worked cases shown below.
Give pKd for the following binder: Antibody Bäradreck (antibody, V domains shown, full-length IgG) VH: QVQLVQSGAEVKKPGSSVKVSCKASGYTFTSSYINWVRQAPGQGLEWMGTINPVSGSTSYAQKFQGRVTITADTSTSTAYMELSSLRSEDTAVYYCARGGWFDYWGQGTLVTVSS VL: QSALTQPRSVSGSPGQSVTISCTGTSSDVGSYNYVNWYQQHPGKAPKLMIYGVSKRPSGVPDRFSGSKSGNTASLTISGLQAEDEADYYCGTFAGGSYYGVFGGGTKLTVL
9.95

Give pKd for the following binder: Bäradreck Fab (Fab, V domains shown, Fab) VH: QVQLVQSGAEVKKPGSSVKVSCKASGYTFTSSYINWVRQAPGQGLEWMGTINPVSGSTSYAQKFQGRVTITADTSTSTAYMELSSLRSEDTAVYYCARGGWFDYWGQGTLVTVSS VL: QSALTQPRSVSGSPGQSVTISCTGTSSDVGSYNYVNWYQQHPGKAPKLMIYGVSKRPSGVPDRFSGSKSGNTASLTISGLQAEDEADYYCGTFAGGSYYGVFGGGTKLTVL
9.18

More entries:
Give pKd for the following binder: Antibody Bebballesgmias (antibody, V domains shown, full-length IgG) VH: QVQLVQSGAEVKKPGSSVKVSCKASGYKFTSSYINWVRQAPGQGLEWMGTINPVSGSTSYAQKFQGRVTITADTSTSTAYMELSSLRSEDTAVYYCARGGWFDYWGQGTLVTVSS VL: QSALTQPRSVSGSPGQSVTISCTGTSSDVGSYNYVNWYQQHPGKAPKLMIYGVSKRPRGVPDRFSGSKSGNTASLTISGLQAEDEADYYCGTFAGGSYYGVFGGGTKLTVL
9.85
